target_or_test_system: human NPY5 receptor (Homo sapiens, UniProt Q15761)
Construct: expressed in transfected cells
Sequence (Q15761 1-445): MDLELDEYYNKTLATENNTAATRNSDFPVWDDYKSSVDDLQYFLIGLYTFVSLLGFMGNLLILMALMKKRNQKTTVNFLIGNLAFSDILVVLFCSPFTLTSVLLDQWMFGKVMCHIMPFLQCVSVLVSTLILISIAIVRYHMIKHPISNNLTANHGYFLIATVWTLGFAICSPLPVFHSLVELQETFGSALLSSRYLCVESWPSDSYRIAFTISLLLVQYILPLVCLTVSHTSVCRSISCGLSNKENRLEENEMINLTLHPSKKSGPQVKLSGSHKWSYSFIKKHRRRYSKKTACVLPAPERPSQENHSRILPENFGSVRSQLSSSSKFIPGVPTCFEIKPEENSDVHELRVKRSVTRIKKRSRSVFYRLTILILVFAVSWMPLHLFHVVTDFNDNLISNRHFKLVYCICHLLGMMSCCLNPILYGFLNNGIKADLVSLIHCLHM
test: Binding affinity at the human NPY5 receptor
test_settings: Table 3b; read-out: hNPY5 Ki
pKi: −log10 of the molar value. Structures can show the parent of a compound that is named as a salt.
test_readout: pKi

>  <compound>
COCC1=C(C(=O)OC)C(c2ccc(F)c(F)c2)N(C(=O)NCCCN2CCC(c3cccc(NC(C)=O)c3)CC2)C(=O)N1 (single isomer, unassigned; (-)) [Example 1]

>  <test_readout>
pKi

>  <result>
< 4.30

$$$$
>  <compound>
CCCCN(CCCC)c1ccc(CN2CCC(CNC(=O)N3C(=O)NC(C)=C(C(=O)OC)C3c3ccc4nonc4c3)CC2)cc1 (centres unmarked) [Example 6]

>  <test_readout>
pKi

>  <result>
5.32

$$$$
>  <compound>
COCC1=C(C(=O)OC)[C@H](c2ccc(F)c(F)c2)N(C(=O)NCCCN2CCC(c3cccc(NC(C)=O)c3)CC2)C(=O)N1 [Example 10]

>  <test_readout>
pKi

>  <result>
< 4.30

$$$$
>  <compound>
CCC1=C(C(=O)O)C(c2ccc(F)c(F)c2)N(C(=O)NCCCN2CCC3(CC2)OCc2ccccc23)C(=O)N1 (single isomer, unassigned; (+)) [Example 4, HYDROCHLORIDE]

>  <test_readout>
pKi

>  <result>
< 4.30

$$$$
>  <compound>
CCCCN(CCCC)c1ccc(CNC[C@H]2CC[C@H](NC(=O)c3cccc4ccccc34)CC2)cc1 [Example 13]

>  <test_readout>
pKi

>  <result>
< 4.30

$$$$

---

target_or_test_system: human α2B adrenoceptor (Homo sapiens, UniProt P18089)
Construct: expressed in transfected cells
Sequence (P18089 whole entry): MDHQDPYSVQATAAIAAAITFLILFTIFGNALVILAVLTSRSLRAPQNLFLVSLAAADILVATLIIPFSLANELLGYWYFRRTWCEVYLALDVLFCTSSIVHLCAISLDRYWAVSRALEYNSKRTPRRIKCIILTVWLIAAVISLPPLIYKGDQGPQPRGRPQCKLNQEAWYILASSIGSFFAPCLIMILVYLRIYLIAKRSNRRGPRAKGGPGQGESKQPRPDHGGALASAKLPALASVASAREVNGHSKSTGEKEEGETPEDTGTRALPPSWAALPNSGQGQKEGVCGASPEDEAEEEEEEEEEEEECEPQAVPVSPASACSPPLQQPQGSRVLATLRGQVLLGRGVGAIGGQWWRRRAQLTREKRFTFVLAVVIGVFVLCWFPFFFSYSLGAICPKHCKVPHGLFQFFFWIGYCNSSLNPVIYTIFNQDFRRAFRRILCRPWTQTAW
test: Binding affinity at the human α2B adrenergic receptor
pKi: −log10 of the molar value. Counter-ions that a name gives are not always drawn.
test_readout: pKi

>  <compound>
COC(=O)C1=C(C)NC(=O)N(C(=O)NCCCN2CCC3(CC2)OCc2ccccc23)C1c1ccc(F)c(F)c1 (centres unmarked)

>  <test_readout>
pKi

>  <quantitative_result>
7.01

$$$$
>  <compound>
COC(=O)C1=C(C)NC(=O)N(C(=O)NCCCN2CCC3(CC2)OCc2ccccc23)C1c1ccc2nonc2c1 (single isomer, unassigned) [Example 18, HYDROCHLORIDE]

>  <test_readout>
pKi

>  <quantitative_result>
7.13

$$$$
